These measurements were taken from the supplement of paper PMC12042874.

# assay comment: amyloid nucleation score (Sup35N fusion, yeast selection) (log enrichment); library NNK2; higher = more nucleation; inactive = no reads after selection;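 further: zero at mode of non-aggregating sequences after 7 days selection at 30°C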

>  <substance>
YGEELE

>  <amyloid nucleation score>
inactive

$$$$
>  <substance>
NQVFSIALAQNRSRHFFLGG

>  <amyloid nucleation score>
inactive

$$$$
>  <substance>
RFAFFVYPTYMRMTVTVLSY

>  <amyloid nucleation score>
inactive

$$$$

---

# assay comment: amyloid nucleation score (Sup35N fusion, yeast selection) (log enrichment); library NNK2; higher = more nucleation; inactive = no reads after selection
Kindly return yes (1) if reported amyloid nucleation score is no lower than 0.4; return no (0) if it is lower.

>  <substance>
CSEVLRTFGKARHTEAR

>  <label>
yes (1)

$$$$
>  <substance>
LMNLVVG

>  <label>
no (0)

$$$$
>  <substance>
VWRNRSGNITSVTFL

>  <label>
yes (1)

$$$$
>  <substance>
VRWNIVKSCAVMDSNGIMWV

>  <label>
yes (1)

$$$$
>  <substance>
ENNFYY

>  <label>
yes (1)

$$$$
>  <substance>
LRNVRMYDLSLWSRGTRCEG

>  <label>
yes (1)

$$$$
>  <substance>
SNVRWKRGYGDNTILGGSLT

>  <label>
yes (1)

$$$$
>  <substance>
EGSCYIWGSMAITFNAHHDR

>  <label>
yes (1)

$$$$
>  <substance>
LNNHTPDLVWRSSVIGRCQK

>  <label>
yes (1)

$$$$
>  <substance>
FIVMEVVEERCMSIVVESNQ

>  <label>
no (0)

$$$$
>  <substance>
YVAILFRFRRSIMFNLLIQM

>  <label>
no (0)

$$$$
>  <substance>
RVDKMMYSRLPCLVAV

>  <label>
yes (1)

$$$$
>  <substance>
HNITLLQLNCKWLKMVYEWT

>  <label>
yes (1)

$$$$
>  <substance>
SLSCGLYGYMTNSCSYVHRT

>  <label>
yes (1)

$$$$
>  <substance>
SISVKGLSGRLTVRYLLILV

>  <label>
no (0)

$$$$
>  <substance>
RKLIFVMTRRLGRSSRTVLM

>  <label>
no (0)

$$$$
>  <substance>
TICSHKRKYNWMIGWRMSTF

>  <label>
no (0)

$$$$
>  <substance>
LIRSFNSSYVEGRHANI

>  <label>
yes (1)

$$$$
>  <substance>
NTVHWSDSCRLFPHRDQQCF

>  <label>
no (0)

$$$$
>  <substance>
LLNGPVYFFNLWVHGAC

>  <label>
yes (1)

$$$$
>  <substance>
VVYTRIEVILSGDLSPREMV

>  <label>
yes (1)

$$$$
>  <substance>
SDLSKKSLLKVLMAS

>  <label>
no (0)

$$$$
>  <substance>
YRYPRCRVRLVS

>  <label>
no (0)

$$$$
>  <substance>
WVKENI

>  <label>
no (0)

$$$$

---

Quick reference: amyloid nucleation score of the listed items.
# assay comment: amyloid nucleation score (Sup35N fusion, yeast selection) (log enrichment); library NNK2; higher = more nucleation; inactive = no reads after selection

>  <substance>
LLVVIPYGSYWDV

>  <amyloid nucleation score>
-0.501

$$$$
>  <substance>
RMIPCLLRFGTYLFF

>  <amyloid nucleation score>
-0.509

$$$$
>  <substance>
NCIRSNDRMMFPLCVTLSCS

>  <amyloid nucleation score>
0.335

$$$$
>  <substance>
SEFYIRLQYNNVVIVDLFEV

>  <amyloid nucleation score>
-0.701

$$$$
>  <substance>
RIEIRQSLEDRLRAVSMAET

>  <amyloid nucleation score>
1.64

$$$$
>  <substance>
FSWLSPMWYMLNDRKLYGNP

>  <amyloid nucleation score>
0.779

$$$$
>  <substance>
LVKCHANGCFPYLSTIFIRP

>  <amyloid nucleation score>
0.156

$$$$
>  <substance>
GYVFHYVSIQL

>  <amyloid nucleation score>
7.96

$$$$
>  <substance>
TVLVSRFDIIRHRCPTELKR

>  <amyloid nucleation score>
0.153

$$$$
>  <substance>
YVLSRDRSWIHGGVGELGAW

>  <amyloid nucleation score>
0.969

$$$$
>  <substance>
FCCTLAIFSL

>  <amyloid nucleation score>
7.59

$$$$
>  <substance>
RHGMNGRLTFLASTYSASRL

>  <amyloid nucleation score>
0.349

$$$$
>  <substance>
GVWIFKYCRNNWFGFLIISA

>  <amyloid nucleation score>
3.33

$$$$
>  <substance>
CFLVDFHVARSVDSYVELGS

>  <amyloid nucleation score>
-0.436

$$$$
>  <substance>
LSSPLNLQHVFPLTWMYLC

>  <amyloid nucleation score>
-0.742

$$$$
>  <substance>
HVAFKLKVIVRIVSLTSGER

>  <amyloid nucleation score>
2.94

$$$$
>  <substance>
HCGTHVYYGAIWV

>  <amyloid nucleation score>
-0.483

$$$$
